- ASSAY_EXPLANATION: in vitro
- CONDITION_DESCRIPTION: human, Caco-2
PROPERTY_MEASURED: Papp B→A at 2 h

[[record]]
compound = "c1ccc2c(c1)Nc1ccccc1S2 [10H-phenothiazine]"
result = "37.7 ×10⁻⁶ cm/s"


---

- ASSAY_EXPLANATION: in vitro
- CONDITION_DESCRIPTION: human, Caco-2
PROPERTY_MEASURED: Papp A→B at 2 h (×10⁻⁶ cm/s)

[[record]]
molecule = "c1ccc2c(c1)Nc1ccccc1S2 [10H-phenothiazine]"
property_measured = "Papp A→B at 2 h"
readout_number = 42.7


---

- Tested on: P-gp (MDR1)
- ASSAY_EXPLANATION: in vitro
- CONDITION_DESCRIPTION: dog, MDCK-MDR1, Permeability coefficient (Papp) MDCK-MDR1 cells (A -> B)
PROPERTY_MEASURED: Papp A→B at 60 min

[[record]]
smiles = "CN1CCN(CCCN2c3ccccc3Sc3ccc(C(F)(F)F)cc32)CC1"
property_measured = "Papp A→B at 60 min"
result = "< 8.7 nm/s"

[[record]]
smiles = "CN1CCN(CCCN2c3ccccc3Sc3ccc(Cl)cc32)CC1"
property_measured = "Papp A→B at 60 min"
result = "< 12.8 nm/s"

[[record]]
smiles = "FC(F)(F)c1ccc2c(c1)N(CCCCN1CCCCC1)c1ccccc1S2"
property_measured = "Papp A→B at 60 min"
result = "< 14.2 nm/s"


The values you see were collected from patent US11542290B2.
